Biological target: T1, soluble human Lag3-IgG1-Fc with biotinylated C-terminal Avi-tag (human, biotin on the C-terminal Avi-tag)
T1 construct: also called LAG3-Fc-avi; biotinylated LAG3-Fc antigen
T1 sequence (chain, as listed by the source limits assumed): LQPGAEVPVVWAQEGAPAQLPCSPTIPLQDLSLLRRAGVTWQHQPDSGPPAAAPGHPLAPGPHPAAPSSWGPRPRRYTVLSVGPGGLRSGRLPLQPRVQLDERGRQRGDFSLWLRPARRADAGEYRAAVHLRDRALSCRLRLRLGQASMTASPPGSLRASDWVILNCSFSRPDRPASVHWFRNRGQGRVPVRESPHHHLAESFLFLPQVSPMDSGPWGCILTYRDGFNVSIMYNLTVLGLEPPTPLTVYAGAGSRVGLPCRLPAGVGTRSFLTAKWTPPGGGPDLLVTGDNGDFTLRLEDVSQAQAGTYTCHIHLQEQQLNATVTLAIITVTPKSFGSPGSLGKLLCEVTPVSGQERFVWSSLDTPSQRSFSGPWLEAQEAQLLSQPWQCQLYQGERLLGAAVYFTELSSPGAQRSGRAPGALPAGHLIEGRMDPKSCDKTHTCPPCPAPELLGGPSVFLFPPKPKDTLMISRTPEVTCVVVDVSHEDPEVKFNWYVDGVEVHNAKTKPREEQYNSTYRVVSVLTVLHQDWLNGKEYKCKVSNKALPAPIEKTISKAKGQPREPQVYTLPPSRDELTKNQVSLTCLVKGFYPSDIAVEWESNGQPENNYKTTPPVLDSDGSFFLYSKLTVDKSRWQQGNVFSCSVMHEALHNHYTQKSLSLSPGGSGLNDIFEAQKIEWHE
Assay: SPR (ProteOn XPR36), biotinylated LAG3-Fc captured on NLC chip, purified aVH as analyte, 25 C;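 note: One-shot kinetics in PBST running buffer, rates fitted by 1:1 Langmuir model fitting association and dissociation together, KD as koff/kon, biotinylated Fc surface as negative control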
Measure Name: Kd (nM)

Examples with answers:
[
  {
    "Binder": "LAG3 P21A03 aVH domain (VHH, also called 21A3) VHH: EVQLVESGGGLVQPGGSLRLSCAASGFNIKDTCIGWVRRAPGKGTELVAEICEDIGYTRYADSVKGRFTISADTSKNTAYLQMNSLRAEDTAVYYCAANEHSVGFNYWGQGTTVTVSS",
    "Kd [nM]": 13.7
  },
  {
    "Binder": "LAG3 P10D1 aVH domain (VHH, also called P110D1) VHH: EVQLVESGGGLVQPGGSLRLSCAASGFSIKDTCIAWVRRAPGKGTELVAEICEDIGYTRYADSVKGRFTISADTSKNTAYLQMNSLRAEDTAVYYCAAKEAGVGFDYWGQGTTVTVSS",
    "Kd [nM]": 27
  },
  {
    "Binder": "LAG3 17D7 aVH domain (VHH) VHH: EVQLVESGGGLVQPGGSLRLSCAASGFNIKDTCIGWVRRAPGKGTELVAEICTDIGYTRYADSVKGRFTISADTSKNTAYLQMNSLRAEDTAVYYCAAGEGSSGFHYWGQGTTVTVSS",
    "Kd [nM]": 311
  },
  {
    "Binder": "LAG3 21B11 aVH domain (VHH) VHH: EVQLVESGGGLVQPGGSLRLSCAASGFNIKDTCIGWVRRAPGKGTELVAEICQDIGYTRYADSVKGRFTISADTSKNTAYLQMNSLRAEDTAVYYCAADESVDNFKYWGQGTTVTVSS",
    "Kd [nM]": 43
  },
  {
    "Binder": "LAG3 19G3 aVH domain (VHH, also called P19G3) VHH: EVQLVESGGGLVQPGGSLRLSCAASGFNIKYQCIGWVRRAPGKGTELVAEICSYDGYTRYADSVKGRFTISADTSKNTAYLQMNSLRAEDTAVYYCAAEESVEGFIYWGQGTTVTVSS",
    "Kd [nM]": 766
  },
  {
    "Binder": "LAG3 P11E9 aVH domain (VHH) VHH: EVQLVESGGGLVQPGGSLRLSCAASGFNIKDTCIGWVRRAPGKGTELVAEICHDIGYTRYADSVKGRFTISADTSKNTAYLQMNSLRAEDTAVYYCAAEEHVASFEYWGQGTTVTVSS",
    "Kd [nM]": 6.81
  },
  {
    "Binder": "LAG3 P10C3 aVH domain (VHH) VHH: EVQLVESGGGLVQPGGSLRLSCAASGFNIKDTCIGWVRRAPGKGTELVAEICTDAGYTRYADSVKGRFTISADTSKNTAYLQMNSLRAEDTAVYYCAASESPSGFRYWGQGTTVTVSS",
    "Kd [nM]": 38.5
  },
  {
    "Binder": "LAG3 9B4 aVH domain (VHH) VHH: EVQLVESGGGLVQPGGSLRLSCAASGFNIKDTCIGWVRRAPGKGTELVAEICQDIGYTRYADSVKGRFTISADTSKNTAYLQMNSLRAEDTAVYYCAAVEVAEYFEYWGQGTTVTVSS",
    "Kd [nM]": 86
  }
]

[A] LAG3 P11E2 aVH domain (VHH) VHH: EVQLVESGGGLVQPGGSLRLSCAASGFNIKDTCIGWVRRAPGKGTELVAEICDDIGYTRYADSVKGRFTISADTSKNTAYLQMNSLRAEDTAVYYCASQEHQWSFKYWGQGTTVTVSS
[B] LAG3 P11A2 aVH domain (VHH) VHH: EVQLVESGGGLVQPGGSLRLSCAASSFNIKDTYIGWVRRAPGKGTELVAEIACHEGTTRYADSVKGRFTISCDTSKNTAYLQMNSLRAEDTAVYYCANTEYDDIFDYWGQGTTVTVSS
Input: Hi, I'm comparing two records. Which one has the lower Kd, A or B ? Could you answer with the label of the item you picked?
Output: A
